- tgt: Sfp (Bacillus spizizenii)
- Sequence (G4NQW2 entry or part of it): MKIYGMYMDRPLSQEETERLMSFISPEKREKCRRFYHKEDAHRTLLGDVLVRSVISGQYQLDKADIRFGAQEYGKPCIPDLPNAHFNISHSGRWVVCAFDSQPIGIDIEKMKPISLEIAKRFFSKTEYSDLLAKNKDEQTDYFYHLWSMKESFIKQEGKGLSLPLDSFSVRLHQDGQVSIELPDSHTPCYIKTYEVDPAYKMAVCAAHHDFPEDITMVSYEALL
- protocolNotes: BpsA coupled PPTase inhibition assay, Sfp
- Assay type: biochemical, B. subtilis subsp. spizizenii ATCC6633
- particulars: IC50, Sfp; 1.25 μM CoA; 95% CI in parentheses
readoutLabel: pIC50
API: returns pIC50 as number; meaning -log10 of concentration in mol/L.

[in] Which pIC50 reading was recorded for the compound O=Nc1ccc2oc(=O)ccc2c1 [6-NOBP] ?
[out] 5.68

###

- tgt: all three PPTases
- protocolNotes: BpsA coupled PPTase inhibition assay, summary over all three PPTases
- particulars: read-out: IC50 values, range over the three PPTases; CoA concentration set at 5 μM
readoutLabel: IC50

[in] Which IC50 reading was recorded for the compound O=Nc1ccc2oc(=O)ccc2c1 ?
[out] 9.1 to 10.8 µM
